Listed below: kon values for each entry.
Biological target: T1, human [1-305]-mouse chimeric EL (human; mouse, UniProt Q9WVG5 306-500)
T1 construct: Heparin extract, captured or detected by an anti-C2-tag antibody; also called human-mouse chimeric EL
T1 sequence: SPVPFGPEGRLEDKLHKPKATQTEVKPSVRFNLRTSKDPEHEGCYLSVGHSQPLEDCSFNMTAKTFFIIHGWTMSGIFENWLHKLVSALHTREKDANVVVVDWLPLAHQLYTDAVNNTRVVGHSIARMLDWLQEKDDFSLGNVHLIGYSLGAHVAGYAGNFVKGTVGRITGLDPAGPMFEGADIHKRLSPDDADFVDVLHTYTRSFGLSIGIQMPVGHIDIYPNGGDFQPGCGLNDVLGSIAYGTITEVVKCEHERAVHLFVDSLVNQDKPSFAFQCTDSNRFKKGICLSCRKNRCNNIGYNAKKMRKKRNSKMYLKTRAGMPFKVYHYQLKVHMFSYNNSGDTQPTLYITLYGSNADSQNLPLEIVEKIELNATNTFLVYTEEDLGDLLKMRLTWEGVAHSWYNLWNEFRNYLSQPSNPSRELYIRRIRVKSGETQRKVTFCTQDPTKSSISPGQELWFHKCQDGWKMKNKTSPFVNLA
Experiment: Biacore; EL captured by anti-C2-tag Ab; bivalent fit
Protocol: The binding affinities of anti-EL antibodies were measured using Biacore. […] Then, anti-EL humanized antibodies were added and the binding affinities were calculated by bivalent fitting of BIAevaluation software.
Numbers only; they are read as M⁻¹ s⁻¹.

Past entries and their recorded results:
Binder	Reported Endpoint	Experimental Value
h55A1-F4 (antibody, V domains shown, humanized) VH: QVQLVQSGAEVKKPGASVKVSCKASGYTFTNYGMNWVRQAPGQGLEWMGWINTYSGVPTYAGDFKGRVTMTTDTSTSTAYMELRSLRSDDTAVYYCARRGYYGRRYFDVWGKGTTVTVSS VL: EIVLTQSPGTLSLSPGERATLSCKASQSVDYDVDSYMHWYQQKPGQAPRLLIYAASNLASGIPDRFSGSGSGTDFTLTISRLEPEDFAVYYCQQTIEDPPTFGGGTKVEIK	kon	140000
h55A1-F5 (antibody, V domains shown, humanized) VH: QVQLVQSGAEVKKPGASVKVSCKASGYTFTNYGMNWVRQAPGQGLEWMGWINTYSGVPTYAGDFKGRFTFTLDTSTSTAYMELSSLRSEDTAVYYCARRGYYGRRYFDVWGKGTTVTVSS VL: DIQLTQSPSSLSASVGDRVTITCKASQSVDYDVDSYMHWYQQKPGKAPKLLIYAASNLASGVPSRFSGSGSGTDFTLTISSLQPEDFATYYCQQTIEDPPTFGGGTKVEIK	kon	140000

So for h16B3-F2 (antibody, V domains shown, humanized) VH: EVQLVESGGGLVQPGGSLRLSCAASGFTFSGYTMSWVRQAPGKGLEWVSEISFARDRAFYPDTVKGRFTISRDNSKNTLYLQMNSLRAEDTAVYYCARLGGRNHDYWYFDVWGQGTTVTVSS VL: EIVMTQSPATLSVSPGERATLSCRASESVEYYGTSLMQWYQQKPGQAPRLLIYAASNVESGIPARFSGSGSGTEFTLTISSLQSEDFAVYYCQQSWKVPFTFGQGTKLEIK , the logged kon turned out to be 29000
